Could you please report measured melting point for the items listed next?

Asked: Could you tell me which melting point is on file for COc1c(C(=O)c2cc(F)cc(F)c2)cc(-c2ccc[nH]c2=O)cc1C(C)(C)C ?
Given back: 197.1 to 198.6 °C

Asked: Could you tell me which melting point is on file for COc1c(C(=O)Nc2cccc(CNS(C)(=O)=O)c2)cc(-c2ccc[nH]c2=O)cc1C(C)(C)C ?
Given back: 145 to 147 °C

Asked: Could you tell me which melting point is on file for COc1c(C(=O)Nc2ccccc2)cc(-c2ccc[nH]c2=O)cc1C(C)(C)C ?
Given back: 288 to 290 °C

Asked: Could you tell me which melting point is on file for COc1c(CCc2ccc(N)nn2)cc(-c2ccc[nH]c2=O)cc1C(C)(C)C ?
Given back: 142 to 144 °C

Asked: Could you tell me which melting point is on file for COc1c(/C=C/c2ccc(NS(C)(=O)=O)cc2)cc(-c2cc(F)cn(COC(=O)[C@@H](N)C(C)C)c2=O)cc1C(C)(C)C ?
Given back: 188 to 190 °C

Asked: Could you tell me which melting point is on file for COc1c(CCC(=O)O)cc(-c2ccc[nH]c2=O)cc1C(C)(C)C ?
Given back: 180.2 to 181.8 °C

Asked: Could you tell me which melting point is on file for COc1c(CC(CN2CCC(F)(F)C2)c2ccc(NS(C)(=O)=O)cc2)cc(-c2ccc[nH]c2=O)cc1C(C)(C)C (centres unmarked) ?
Given back: 133 to 135 °C

Asked: Could you tell me which melting point is on file for COc1c(/C=C/c2ccc(NS(C)(=O)=O)cc2)cc(-c2cc(F)cn(COP(=O)(O)O)c2=O)cc1C(C)(C)C ?
Given back: 175 to 178 °C

Asked: Could you tell me which melting point is on file for COc1c(NC(=O)c2ccc(N)cc2)cc(-c2ccc[nH]c2=O)cc1C(C)(C)C ?
Given back: 190 to 193 °C

Asked: Could you tell me which melting point is on file for COc1c(NC(=O)c2ccc(NS(C)(=O)=O)cc2)cc(-c2cc(F)c[nH]c2=O)cc1C(C)(C)C ?
Given back: 272 to 274 °C

Give melting point for all compounds that follow.
1. CC(C)(C)c1cc(CCc2ccc(NS(C)(=O)=O)cc2)c(O)c(-c2ccc[nH]c2=O)c1
2. Cc1cc(-c2ccc[nH]c2=O)cc(C(C)(C)C)c1
3. COc1c(/C=C/c2ccc(NS(C)(=O)=O)cn2)cc(-c2ccc[nH]c2=O)cc1C(C)(C)C

Given back:
1: 96.4 to 135.6 °C; 2: 224 to 225 °C; 3: 293 to 295 °C
